tested on: PBMC; test: Growth inhibition of phytohemagglutinin-activated human PBMC cells after 24 to 72 hrs by MTT assay; type: cell-based
MEASURE: IC50 (µM)
// units = µM; emit number, no label

Measured on PBMC, CO[C@@]12[C@H](COC(N)=O)C3=C(C(=O)C(C)=C(N)C3=O)N1C[C@@H]1N[C@@H]12 [MITOMYCIN] has a documented IC50 of 4.03

---

system: K562; test: Growth inhibition of human K562 cells after 24 to 72 hrs by MTT assay; format: functional, cell-based
MEASURE: IC50 (nM)
// units = nM; emit number, no label

IC50 reading for O=C1C2=C(C(=O)c3ccccc31)[C@H]1Oc3ccc(Br)cc3[C@H]1CO2 (racemic) : 5700

IC50 reading for O=C1C2=C(C(=O)c3ccccc31)[C@H]1Oc3ccc([N+](=O)[O-])cc3[C@H]1CO2 (racemic) : 3480

---

experiment: Toxicity in LPS-stimulated human PBMC cells assessed as cell viability at 100 uM; type: cell-based
MEASURE: viability at 100 µM

viability at 100 µM reading for O=C1C2=C(C(=O)c3ccccc31)[C@H]1Oc3ccccc3[C@H]1CO2 [PTEROCARPANQUINONE] : > 70%

---

system: K562; experiment: Growth inhibition of human K562 cells after 24 to 72 hrs by MTT assay; assay type: functional, cell-based
MEASURE: IC50 (nM)
// units = nM; emit number, no label

Here are 4 compounds together with their reported answers.
>>> measurement("CO[C@@]12[C@H](COC(N)=O)C3=C(C(=O)C(C)=C(N)C3=O)N1C[C@@H]1N[C@@H]12 [MITOMYCIN]")
470
>>> measurement("O=C1C2=C(OC[C@@H]3c4cc5c(cc4O[C@H]23)OCO5)C(=O)c2c1ccc(O)c2O")
2950
>>> measurement("O=C1C2=C(C(=O)c3ccccc31)[C@H]1Oc3ccc(Cl)cc3[C@H]1CO2 (racemic)")
6770
>>> measurement("O=C1C2=C(C(=O)c3ccccc31)[C@H]1Oc3ccccc3[C@H]1CO2 [PTEROCARPANQUINONE]")
1670

Now look at this entry.
Measured on K562, COc1cc2c(cc1O)[C@H]1COC3=C(C(=O)c4ccccc4C3=O)[C@H]1O2 (racemic) has a documented IC50 of 2180
